Catalogue of pIC50 readings, one per entry.
# System name: Serotonin 3 (5-HT3) receptor (Rattus norvegicus, UniProt P35563+Q9JJ16)
# Sequence (P35563 whole entry): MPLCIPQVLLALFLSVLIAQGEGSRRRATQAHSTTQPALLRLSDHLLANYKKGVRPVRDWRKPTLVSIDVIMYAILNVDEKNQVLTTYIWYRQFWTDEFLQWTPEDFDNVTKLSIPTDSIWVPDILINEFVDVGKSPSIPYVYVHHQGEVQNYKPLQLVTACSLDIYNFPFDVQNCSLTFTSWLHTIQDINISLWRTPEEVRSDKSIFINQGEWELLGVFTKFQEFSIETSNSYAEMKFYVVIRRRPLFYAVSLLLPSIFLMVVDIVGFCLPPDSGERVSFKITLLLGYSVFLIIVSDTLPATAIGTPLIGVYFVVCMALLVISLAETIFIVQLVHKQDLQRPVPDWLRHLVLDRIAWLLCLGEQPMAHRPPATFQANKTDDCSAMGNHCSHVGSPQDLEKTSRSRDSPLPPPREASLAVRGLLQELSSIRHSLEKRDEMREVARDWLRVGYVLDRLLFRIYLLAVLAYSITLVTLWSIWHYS
# Sequence (Q9JJ16 whole entry): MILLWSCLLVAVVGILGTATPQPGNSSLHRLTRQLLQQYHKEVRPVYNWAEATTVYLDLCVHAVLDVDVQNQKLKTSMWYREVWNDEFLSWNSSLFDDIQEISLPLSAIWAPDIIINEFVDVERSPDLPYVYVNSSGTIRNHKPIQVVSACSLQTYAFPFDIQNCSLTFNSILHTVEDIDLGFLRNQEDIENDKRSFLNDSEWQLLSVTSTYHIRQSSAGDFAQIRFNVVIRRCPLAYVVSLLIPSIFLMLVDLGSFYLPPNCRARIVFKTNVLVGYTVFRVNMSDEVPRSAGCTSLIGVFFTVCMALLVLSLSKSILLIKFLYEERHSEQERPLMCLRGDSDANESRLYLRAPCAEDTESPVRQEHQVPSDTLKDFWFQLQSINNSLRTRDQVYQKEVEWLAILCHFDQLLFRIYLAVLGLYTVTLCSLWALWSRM
# Test name: Binding affinity towards 5-hydroxytryptamine 3 receptor
pIC50: −log10 of the molar value.
Endpoint label: pIC50

>  <Compound smiles>
Fc1ccc(CN2CCN(c3nc4sccc4n4cccc34)CC2)cc1

>  <Relation operator>
=

>  <Reported measurement>
8.93

$$$$
>  <Compound smiles>
c1ccc(-c2cc3nc(N4CCNCC4)c4cccn4c3s2)cc1

>  <Relation operator>
=

>  <Reported measurement>
5.61

$$$$
>  <Compound smiles>
c1cc2c(N3CCOCC3)nc3ccsc3n2c1

>  <Relation operator>
=

>  <Reported measurement>
4.68

$$$$
>  <Compound smiles>
C1=CCN(c2nc3ccsc3n3cccc23)CC1

>  <Relation operator>
<

>  <Reported measurement>
4.00

$$$$
>  <Compound smiles>
Clc1ccc(CN2CCN(c3nc4ccsc4n4cccc34)CC2)cc1Cl

>  <Relation operator>
=

>  <Reported measurement>
5.64

$$$$
>  <Compound smiles>
c1cc2c(N3CCN(CC4CC4)CC3)nc3ccsc3n2c1

>  <Relation operator>
=

>  <Reported measurement>
7.22

$$$$
>  <Compound smiles>
C(=C\c1ccccc1)/CN1CCN(c2nc3ccsc3n3cccc23)CC1

>  <Relation operator>
=

>  <Reported measurement>
6.70

$$$$
>  <Compound smiles>
Clc1ccc(CN2CCN(c3nc4ccsc4n4cccc34)CC2)c(Cl)c1

>  <Relation operator>
=

>  <Reported measurement>
7.78

$$$$
>  <Compound smiles>
FC(F)(F)c1cccc(N2CCN(c3nc4scc(-c5ccccc5)c4n4cccc34)CC2)c1

>  <Relation operator>
=

>  <Reported measurement>
5.53

$$$$
>  <Compound smiles>
CN1CCN(c2nc3ccsc3n3cccc23)CC1

>  <Relation operator>
=

>  <Reported measurement>
6.09

$$$$
>  <Compound smiles>
CN1CCN(c2nc3cc(C(F)(F)F)ccc3n3cccc23)CC1

>  <Relation operator>
=

>  <Reported measurement>
5.88

$$$$
>  <Compound smiles>
Clc1ccc(N2CCN(c3nc4ccsc4n4cccc34)CC2)cc1

>  <Relation operator>
=

>  <Reported measurement>
3.61

$$$$
>  <Compound smiles>
C[N+]1(Cc2ccccc2)CCN(c2nc3ccsc3n3cccc23)CC1

>  <Relation operator>
=

>  <Reported measurement>
6.90

$$$$
>  <Compound smiles>
c1cc2c(N3CCN(Cc4ccc5c(c4)OCO5)CC3)nc3ccsc3n2c1

>  <Relation operator>
=

>  <Reported measurement>
8.59

$$$$
>  <Compound smiles>
O=C(c1ccc(F)cc1)N1CCN(c2nc3ccsc3n3cccc23)CC1

>  <Relation operator>
=

>  <Reported measurement>
2.98

$$$$
>  <Compound smiles>
C=CCN1CCN(c2nc3sccc3n3cccc23)CC1

>  <Relation operator>
=

>  <Reported measurement>
9.04

$$$$
>  <Compound smiles>
CCOC(=O)N1CCN(c2nc3ccsc3n3cccc23)CC1

>  <Relation operator>
=

>  <Reported measurement>
3.69

$$$$
>  <Compound smiles>
c1cc2c(N3CCN(Cc4ccc5c(c4)OCO5)CC3)nc3sccc3n2c1

>  <Relation operator>
=

>  <Reported measurement>
8.99

$$$$
